pIC50: −log10 of the molar value.
Below are pIC50 values measured for Sodium-dependent dopamine transporter (Rattus norvegicus).

// solved cases for pIC50 follow
molecule="CNC(=O)C[S+]([O-])C1c2ccccc2-c2ccccc21 (racemic)" measuredtarget="Sodium-dependent dopamine transporter (Rattus norvegicus)" reportedvalue="< 4.00"
molecule="NC(=O)CNC(=O)C[S+]([O-])C1c2ccccc2-c2ccccc21 (racemic)" measuredtarget="Sodium-dependent dopamine transporter (Rattus norvegicus)" reportedvalue="< 4.00"

Response field pIC50 (Sodium-dependent dopamine transporter (Rattus norvegicus)) for item NC(=O)[C@@H]1CCCN1C(=O)C[S+]([O-])C1c2ccccc2-c2ccccc21 (mixture of isomers) : < 4.00
